B1: Storkhead-box protein 2, residues 64 to 141; numbered along this chain, Q9P2F5 (parent)
chain: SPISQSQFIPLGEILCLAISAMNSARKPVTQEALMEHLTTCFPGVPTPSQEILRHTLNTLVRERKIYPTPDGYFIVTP

Variants of: B1
experiment description: abundance fitness (aPCA) (normalised: wild type 0, dead -1); higher = more abundant; growth selection in yeast, the domain comes from the species named
condition parameters: Homo sapiens
Note to self: class labels come from recorded abundance fitness, ranges listed here: bottom end = under -0.1, midrange = from -0.1 up to -0.02, top end = -0.02 and over

> print(dat)
    variant.designation  discrete.label
 1                 P70Q         top end
 2                 L53S      bottom end
 3                 S24H      bottom end
 4                 S49L      bottom end
 5                 Y67Q         top end
 6                 T69D        midrange
 7                 S24Y        midrange
 8                 G72D        midrange
 9                 P70V         top end
10                 Q31F        midrange
11                 P43F      bottom end
12                 F42A        midrange
13                 L38A      bottom end
14                 C41Q      bottom end
15                 A21D         top end
16                 C41F         top end
17                 P10N         top end
18                 H37M      bottom end
19                 P28H         top end
20                 I75A        midrange
21                 F74L        midrange
22                 A18G        midrange
23                 A18K      bottom end
24                 L11I        midrange
25                  S6K      bottom end
26                  P2Q         top end
27                 H55Y      bottom end
28                 M35D      bottom end
29                 P78A        midrange
30                 R54L         top end
31                 L60C      bottom end
32                 L34I         top end
33                 G44D         top end
34                 F42Q      bottom end
35                 I14N      bottom end
36                 L60A      bottom end
37                 Y73P      bottom end
38                 I19Q      bottom end
39                 R54K        midrange
40                 V61M         top end
41                 R64F      bottom end
42                 I52V         top end
43                 M35G        midrange
44                 N23Q      bottom end
45                  Q5L        midrange
46                 P68L         top end
47                 S24C        midrange
48                 M35H         top end
49                 T59G         top end
50                 L15K      bottom end
51                 I52G        midrange
52                 Y73N         top end
53                 I14P        midrange
54                 Q50G         top end
55                  I3Q      bottom end
56                 D71S        midrange
57                 T69A        midrange
58                  P2V         top end
59                 P68N         top end
60                 L60Y      bottom end
61                 C16D      bottom end
62                  Q7G         top end
63                 P46V        midrange
64                 P48I         top end
